# TARGET OR SYSTEM: T1, Cynomolgus Monkey Siglec-15 full-length extracellular domain linked with His tag (Cynomolgus Monkey)
# T1 construct: Bought from ACROBiosystems; also called SG5-052H6
# T1 chain: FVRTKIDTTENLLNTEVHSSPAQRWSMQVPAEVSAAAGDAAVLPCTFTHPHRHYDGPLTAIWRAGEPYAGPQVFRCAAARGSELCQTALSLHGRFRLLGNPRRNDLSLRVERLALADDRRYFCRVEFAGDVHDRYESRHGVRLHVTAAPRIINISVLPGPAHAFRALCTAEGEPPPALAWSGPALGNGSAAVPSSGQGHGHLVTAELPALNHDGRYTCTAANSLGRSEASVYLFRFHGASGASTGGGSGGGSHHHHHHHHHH
# METHOD: ELISA, coated antigen
READOUT NAME: EC50 (µg/mL)
Answer format: numeric, µg/mL implied, no suffix.

# binder 124B11F6 chimeric antibody (antibody, human IgG1, V domains shown, also called 124B11F6-mHL) VH: EVQLQQSGAELVRPGASVKLSCTASVFNIKDYYMHWVKQRTEQGLEWIGRIDPEDDKTKYAPKFQGKATITADTSSNTAYLHLSTLTSEDTAVYYCVRGWLGYIMDFWGQGTSVTVSS VL: QLVLTQSSSASFSLGASAKLTCTLSSQHSTYTIDWYQQQPLKPPKYVMELKEDGSHSTGDGIPDRFSGSSSGADRYLGISNIQPEDEAVYICGVGATIKEQFVYVFGGGTKVTVL ; its EC50 = 0.016

Where do these numbers come from? They come from patent US20240092897A1.
